Each recorded value in this set is attributed to ChEMBL document CHEMBL3352301.

# System: Rattus norvegicus
# assay.info: Insulin secretagogue activity in fasted hyperglycemic Wistar rat assessed as insulin level at 10 mg/kg, po measured 60 mins post dose by ELISA method (reference value: 0.59 +/- 0.004 ng/mL)
# Type: functional
property: Activity (ng/mL)
Please state the figure in ng/mL; there is no need to write the unit.

[ask] Query the reported Activity for Rattus norvegicus; item: COc1ccc(Cl)cc1C(=O)NCCc1ccc(S(=O)(=O)NC(=O)NC2CCCCC2)cc1 [GLYBURIDE]
[reply] 2.46

[ask] Now consider COc1ccc(S(=O)(=O)NCCc2ccc(S(=O)(=O)NC(=S)Nc3ccc(Cl)cc3)cc2)cc1 .
[reply] 0.52

[ask] Now consider COc1ccc(S(=O)(=O)NCCc2ccc(S(=O)(=O)NC(=S)Nc3ccccc3)cc2)cc1 and answer again.
[reply] 0.53

---

List of Activity values.
# System: Rattus norvegicus
# assay.info: Toxicity in fasted hyperglycemic Wistar rat assessed as LDH level at 10 mg/kg, po by spectrophotometry based LDH release assay (reference value: 75.63 +/- 7.08 IU/L)
# Format: organism-based
# Parameters: dose 10 mg/kg, route oral
# condition.parameters: in vivo
Quick reminder: number only, in IU/L, skip the unit.

Sample records with Activity:
[ask] Form field: reported Activity of COc1ccc(S(=O)(=O)NCCc2ccc(S(=O)(=O)NC(=S)Nc3ccccc3)cc2)cc1
[reply] 108.01

[ask] Please do the same for O=S(=O)(NCCc1ccc(S(=O)(=O)NC(=S)Nc2ccccc2)cc1)c1ccccc1 as well.
[reply] 68.09

[ask] Please give the result for COc1ccc(S(=O)(=O)NCCc2ccc(S(=O)(=O)NC(=S)Nc3ccc(Cl)cc3)cc2)cc1 too.
[reply] 73.92

Others:
[ask] Would you kindly share the measured Activity for COc1ccc(Cl)cc1C(=O)NCCc1ccc(S(=O)(=O)NC(=O)NC2CCCCC2)cc1 [GLYBURIDE] ?
[reply] 41.08

[ask] Please give the result for O=S(=O)(NC(=S)Nc1ccccc1)c1ccc(CCNS(=O)(=O)c2cccc3cccnc23)cc1 too.
[reply] 71.3

[ask] And the next one, O=S(=O)(NC(=S)Nc1ccccc1)c1ccc(CCNS(=O)(=O)c2cccs2)cc1 ?
[reply] 72.19

---

Listing: Ratio of selected compounds
# System: Rattus norvegicus
# assay.info: Insulin secretagogue activity in fasted hyperglycemic Wistar rat assessed as insulinogenic index ratio at 10 mg/kg, po by ELISA method (reference value: 0.66 ng/mg)
# Assay type: functional
Write the value in ng/mg as a bare number.

Would you please look over these solved cases?
[ask] Recorded Ratio for COc1ccc(S(=O)(=O)NCCc2ccc(S(=O)(=O)NC(=S)Nc3ccccc3)cc2)cc1 , please?
[reply] 0.77

[ask] Let us now turn to O=S(=O)(NC(=S)Nc1ccccc1)c1ccc(CCNS(=O)(=O)c2cccc3cccnc23)cc1
[reply] 0.84

[ask] Same question for O=S(=O)(NCCc1ccc(S(=O)(=O)NC(=S)Nc2ccccc2)cc1)c1ccccc1 please.
[reply] 0.31

[ask] Similarly, COc1ccc(Cl)cc1C(=O)NCCc1ccc(S(=O)(=O)NC(=O)NC2CCCCC2)cc1 [GLYBURIDE] ?
[reply] 1.98

Others:
[ask] What Ratio value was documented for this compound, O=S(=O)(NC(=S)Nc1ccccc1)c1ccc(CCNS(=O)(=O)c2cccs2)cc1 ?
[reply] 1.06

[ask] What do you get for COc1ccc(S(=O)(=O)NCCc2ccc(S(=O)(=O)NC(=S)Nc3ccc(Cl)cc3)cc2)cc1 ?
[reply] 0.72
